# Tested on: S. Typhimurium PhoP-regulated promoter GFP reporter, 4 h
# experimental_details: inhibitors of PhoP regulon expression, primary screen, Salmonella Typhimurium, GFP reporter (AID 1863)
pIC50: −log10 of the molar value.
Respond with true (1) for pIC50 values of 5 and above, false (0) for values below.

[ask] Does C#CCOCCOCCOCCNc1nc(N2CCN(C(=O)CCCCCCCCCCNC(=O)[C@H](CCCCN)n3cc(C[C@@H](C)CC)nn3)CC2)nc(N2CCN(C(=O)CCCCCCCCCCNC(=O)[C@H](CCCN=C(N)N)n3cc(C[C@@H](C)CC)nn3)CC2)n1 have a reported pIC50 of at least 5?
[reply] false (0)

[ask] Does C=CC1=C(C(=O)O)N2C(=O)[C@@H](NC(=O)/C(=N/OCC(=O)O)c3csc(N)n3)[C@H]2SC1 have a reported pIC50 of at least 5?
[reply] false (0)

[ask] Does O=C1c2ccccc2C(=O)c2[nH]c(=O)[nH]c21 have a reported pIC50 of at least 5?
[reply] false (0)

[ask] Does CC[C@@H](C)[C@H](CNC)NC[C@@H](Cc1cccc2ccccc12)NCCc1cccc(C(F)(F)F)c1 have a reported pIC50 of at least 5?
[reply] false (0)

[ask] Does O=C(C[n+]1cc(-c2ccc(Cl)cc2)n2c1CCC2)Nc1nc(-c2ccccc2)cs1 have a reported pIC50 of at least 5?
[reply] false (0)

[ask] Does CCCCC(CC)CN=C(N)NC(N)=NCCCCCCN=C(N)NC(N)=NCC(CC)CCCC (stereo unspecified) have a reported pIC50 of at least 5?
[reply] true (1)

----------
# Test system: S. Typhimurium PhoP-regulated promoter GFP reporter, 4 h
# experimental_details: inhibitors of PhoP regulon expression, primary screen, Salmonella Typhimurium, GFP reporter (AID 1863)
metric_name: IC50

In [3]: df
Out[3]:
                                   compound  reported_value
0  CN(C)c1ccc(O)c2c1CC1CC3[C@@H](N(C)C)C(=O)C(C(N)=O)=C(O)[C@]3(O)C(=O)C1=C2O (stereo partly specified)         9.56 µM

[ask] What reported IC50 corresponds to CCCCCCCCCCCCCCCC[n+]1ccc(/C=N/O)cc1 on S. Typhimurium PhoP-regulated promoter GFP reporter, 4 h?
[reply] 33 µM

[ask] What reported IC50 corresponds to Cc1ccc(-c2csc(NC(=O)C[n+]3cc(-c4ccc(C)cc4)n4c3CCC4)n2)cc1 on S. Typhimurium PhoP-regulated promoter GFP reporter, 4 h?
[reply] 50 µM

[ask] What reported IC50 corresponds to COc1ccc(C(C[N+](=O)[O-])n2nc(C)cc2C)cc1 (stereo unspecified) on S. Typhimurium PhoP-regulated promoter GFP reporter, 4 h?
[reply] 48.7 µM

[ask] What reported IC50 corresponds to Cc1nc(N)c(Cc2ccc(Cl)cc2Cl)c(N)n1 on S. Typhimurium PhoP-regulated promoter GFP reporter, 4 h?
[reply] 105 µM

[ask] What reported IC50 corresponds to CN1CCN(C(c2ccc(Cl)cc2)c2cc(Cl)c3cccnc3c2O)CC1 (stereo unspecified) on S. Typhimurium PhoP-regulated promoter GFP reporter, 4 h?
[reply] 44.1 µM

[ask] What reported IC50 corresponds to CCOc1cc(/C=N/N=C(N)N)ccc1OCc1ccc(Cl)cc1 on S. Typhimurium PhoP-regulated promoter GFP reporter, 4 h?
[reply] 45.9 µM

[ask] What reported IC50 corresponds to O=C(Nc1ccccc1)Nc1ccc(Cl)c([N+](=O)[O-])c1 on S. Typhimurium PhoP-regulated promoter GFP reporter, 4 h?
[reply] 45.5 µM

[ask] What reported IC50 corresponds to CCN(CC)CCOc1ccc2c(c1)C(=NNC(=O)c1ccccn1)c1cc(OCCN(CC)CC)ccc1-2 on S. Typhimurium PhoP-regulated promoter GFP reporter, 4 h?
[reply] 42.5 µM

----------
Form field: pIC50 (one value per entry).
# Test system: S. Typhimurium PhoP-regulated promoter GFP reporter, 4 h
# experimental_details: inhibitors of PhoP regulon expression, primary screen, Salmonella Typhimurium, GFP reporter (AID 1863)
A value of pIC50 is the negative decimal logarithm of a concentration given in moles per litre.

>>> df
                                   compound  metric_name  reported_value
0  CCOC(=O)N1CCN(C(=O)c2cn(CC)c3cc(N4CCN(C)CC4)c(F)cc3c2=O)CC1        pIC50            5.31

[ask] What reported pIC50 corresponds to O=C1C=C(O)c2c(O)cc(O)c(O)c2C1=O on S. Typhimurium PhoP-regulated promoter GFP reporter, 4 h?
[reply] 4.14

[ask] What reported pIC50 corresponds to Cc1cc2nc3ccc(=[N+](C)C)cc-3sc2cc1N on S. Typhimurium PhoP-regulated promoter GFP reporter, 4 h?
[reply] 4.49

[ask] What reported pIC50 corresponds to CCCC(=O)NC(c1cccs1)c1cc([N+](=O)[O-])c2cccnc2c1O (configuration not stated) on S. Typhimurium PhoP-regulated promoter GFP reporter, 4 h?
[reply] 4.42

[ask] What reported pIC50 corresponds to CCCCCCCCCn1c2c(c(=N)c3c1CCC3)CCCC2 on S. Typhimurium PhoP-regulated promoter GFP reporter, 4 h?
[reply] 4.51

[ask] What reported pIC50 corresponds to COc1cnc(-c2ccccn2)[nH]c1=O on S. Typhimurium PhoP-regulated promoter GFP reporter, 4 h?
[reply] 4.26

[ask] What reported pIC50 corresponds to O=C(N/N=C/c1cc([N+](=O)[O-])ccc1O)c1ccncc1 on S. Typhimurium PhoP-regulated promoter GFP reporter, 4 h?
[reply] 4.23

[ask] What reported pIC50 corresponds to Cc1nc([N+](=O)[O-])c(Br)n1CC(=O)c1ccccc1 on S. Typhimurium PhoP-regulated promoter GFP reporter, 4 h?
[reply] 3.84

[ask] What reported pIC50 corresponds to CN(C)[C@@H]1C(=O)C(C(N)=O)=C(O)[C@@]2(O)C(=O)C3=C(O)c4c(O)cccc4[C@@](C)(O)C3[C@H](O)C12 (some centres not stated) on S. Typhimurium PhoP-regulated promoter GFP reporter, 4 h?
[reply] 5.76

[ask] What reported pIC50 corresponds to Cc1ccc(C(=O)Sc2cccccc2=O)cc1 on S. Typhimurium PhoP-regulated promoter GFP reporter, 4 h?
[reply] 4.67

[ask] What reported pIC50 corresponds to CCn1cc(C(=O)O)c(=O)c2cc(F)c(N3CCN(C(=S)NC(=O)c4c(OC)cccc4OC)CC3)cc21 on S. Typhimurium PhoP-regulated promoter GFP reporter, 4 h?
[reply] 4.52

[ask] What reported pIC50 corresponds to N=c1n(CC(=O)c2ccc(Br)s2)c2ccccc2n1Cc1ccccc1 on S. Typhimurium PhoP-regulated promoter GFP reporter, 4 h?
[reply] 4.17

----------
# Tested on: S. Typhimurium PhoP-regulated promoter GFP reporter, 4 h
# experimental_details: inhibitors of PhoP regulon expression, primary screen, Salmonella Typhimurium, GFP reporter (AID 1863)
metric_name: pIC50
A value of pIC50 is the negative decimal logarithm of a concentration given in moles per litre.

Reference set, count: 5
compound	pIC50
Clc1ccc(C[n+]2cc(-c3ccc(Cl)cc3)n3c2CCC3)cc1	3.90
CCCCCCCCCCCCCCCCn1cc[n+](C)c1	4.77
CCn1cc(C(=O)NCCO)c(=O)c2cc(F)c(N3CCN(C)CC3)cc21	4.65
CC(=O)NC(c1ccc(C)cc1)c1cc([N+](=O)[O-])c2cccnc2c1O (stereo unspecified)	4.43
CCn1cc(C(=O)O)c(=O)c2cc(F)c(N3CCN(C(=S)NC(=O)c4cccc(F)c4)CC3)cc21	4.74

[ask] I am curious: what pIC50 value has been reported for OCCNCc1c(OCc2ccc(Cl)cc2)ccc2ccccc12 ?
[reply] 3.90

[ask] I am curious: what pIC50 value has been reported for COc1c(N2CCN(C(=S)Nc3ccccc3F)C(C)C2)c(F)cc2c(=O)c(C(=O)O)cn(C3CC3)c12 (stereo unspecified) ?
[reply] 5.27

[ask] I am curious: what pIC50 value has been reported for CCn1cc(C(=O)NCC(C)C)c(=O)c2cc(F)c(N3CCN(C)CC3)cc21 ?
[reply] 4.42

[ask] I am curious: what pIC50 value has been reported for CCc1ccc(NC(=O)C[n+]2cc(-c3ccc(C)cc3)n3c2CCC3)cc1 ?
[reply] 3.98

[ask] I am curious: what pIC50 value has been reported for CO[C@H]1C=CO[C@@]2(C)Oc3c(C)c(O)c4c(O)c(c(C=NN5CCN(C)CC5)c(O)c4c3C2=O)NC(=O)C(C)=CC=C[C@H](C)[C@H](O)[C@@H](C)[C@@H](O)[C@@H](C)[C@H](OC(C)=O)[C@@H]1C ?
[reply] 5.20

[ask] I am curious: what pIC50 value has been reported for O=C(O)CSc1cc(NS(=O)(=O)c2cccc([N+](=O)[O-])c2)c2ccccc2c1O ?
[reply] 3.88

[ask] I am curious: what pIC50 value has been reported for O=C(N/N=C/c1ccc([N+](=O)[O-])s1)C(O)c1ccccc1 (stereo unspecified) ?
[reply] 4.08

[ask] I am curious: what pIC50 value has been reported for CC(=O)NC(c1cccs1)c1cc([N+](=O)[O-])c2cccnc2c1O (stereo unspecified) ?
[reply] 4.41

[ask] I am curious: what pIC50 value has been reported for CNc1nc(NCc2ccccc2)c2ccccc2n1 ?
[reply] 3.87

[ask] I am curious: what pIC50 value has been reported for CCCCCOc1ccc(Br)cc1CSC(=N)N ?
[reply] 4.24

[ask] I am curious: what pIC50 value has been reported for CCCCCc1ccc(OCCOCCn2c[n+](C)c3ccccc32)c(CCCCC)c1 ?
[reply] 4.36

[ask] I am curious: what pIC50 value has been reported for O=C1c2ccccc2NC(c2ccc(-c3ccc(Br)cc3)o2)N1O (stereo unspecified) ?
[reply] 3.98

[ask] I am curious: what pIC50 value has been reported for O=Nc1ccc(O)c2ncccc12 ?
[reply] 4.25

[ask] I am curious: what pIC50 value has been reported for O=c1c(O)cccc2cc(O)c(O)c(O)c12 ?
[reply] 4.56

[ask] I am curious: what pIC50 value has been reported for COc1cccc(/C=N\NC(=O)Cn2nnc3ccccc32)c1O ?
[reply] 4.07

[ask] I am curious: what pIC50 value has been reported for C/C(=N\NC(=O)c1cc2ccccc2cc1O)c1ccccn1 ?
[reply] 4.42

[ask] I am curious: what pIC50 value has been reported for CN1CCN(c2cc3c(cc2F)c(=O)c(C(=O)O)cn3CCF)CC1 ?
[reply] 6.43

[ask] I am curious: what pIC50 value has been reported for CCn1cc(C(=O)O)c(=O)c2ccc(C)nc21 ?
[reply] 4.07

[ask] I am curious: what pIC50 value has been reported for CCn1cc(C(=O)O)c(=O)c2cc(F)c(N3CCN(C(=O)Nc4ccccc4)CC3)cc21 ?
[reply] 4.49

[ask] I am curious: what pIC50 value has been reported for Cc1ccc(-c2c[n+](CC(=O)Nc3nc(-c4ccc(F)cc4)cs3)c3n2CCC3)cc1 ?
[reply] 4.17

[ask] I am curious: what pIC50 value has been reported for Cc1ccc(C(=O)O)cc1N=Cc1cc(Br)cc(Br)c1O ?
[reply] 4.03
